- Tested on: Pichia kudriavzevii
- TEST_PROTOCOL: Antifungal activity against Candida krusei clinical isolate after 24 hrs by broth microdilution method
- Assay type: functional
READOUT: MIC (µg/mL)
One number for each entry, in µg/mL.

Example molecules with recorded MIC:
{"MOLECULE": "C/C(=N/N=C1\\SCC(=O)N1Cc1ccc(F)cc1)c1cccs1", "MIC / µg/mL": 2}
{"MOLECULE": "CC(=O)N1CCN(c2ccc(OCC3COC(Cn4ccnc4)(c4ccc(Cl)cc4Cl)O3)cc2)CC1 (stereo not given) [KETOCONAZOLE]", "MIC / µg/mL": 4}

Batch request: MIC per item, same order as input.
1. O=C1CS/C(=N\N=C2CCCC2)N1Cc1ccc(Cl)cc1
2. C/C(=N\N=C1/SCC(=O)N1Cc1cccc(Cl)c1)c1ccccn1
3. C/C(=N\N=C1/SCC(=O)N1Cc1ccccc1F)c1ccccn1

8
4
4

----------
- System: Staphylococcus aureus
- TEST_PROTOCOL: Antibacterial activity against Staphylococcus aureus clinical isolate after 18 to 22 hrs by broth microdilution method
- Type: functional
READOUT: MIC

Here are 2 compounds together with their reported answers.
{"RECORD_SMILES": "C/C(=N\\N=C1/SCC(=O)N1Cc1cccc(F)c1)c1cccs1", "MEASURED_RESULT": "> 256 µg/mL"}
{"RECORD_SMILES": "C/C(=N/N=C1\\SCC(=O)N1Cc1ccc(Cl)cc1)c1ccccn1", "MEASURED_RESULT": "> 256 µg/mL"}

Please state, for each entry, its recorded MIC.
1. CC(C)=N/N=C1\SCC(=O)N1Cc1ccc(N)cc1
2. C/C(=N\N=C1/SCC(=O)N1Cc1ccccc1F)c1ccccn1
3. CC(C)=N/N=C1\SCC(=O)N1Cc1cccc([N+](=O)[O-])c1
4. O=C1CS/C(=N\N=C2CCCC2)N1Cc1ccccc1F
5. O=C1CS/C(=N\N=C2CCCC2)N1Cc1ccccc1Cl

["> 256 µg/mL", "> 256 µg/mL", "> 256 µg/mL", "> 256 µg/mL", "> 256 µg/mL"]

----------
- System: Pichia kudriavzevii
- TEST_PROTOCOL: Antifungal activity against Candida krusei clinical isolate after 24 hrs by broth microdilution method
- Type: functional
Hi there, I'd appreciate the recorded MIC for every entry that follows.
One number for each entry, in µg/mL.

{"RECORD_SMILES": "CC(C)=N/N=C1\\SCC(=O)N1Cc1ccccc1[N+](=O)[O-]", "MIC (µg/mL)": 2}

Hi! Can you tell me MIC for each of these molecules?
1. CC(C)=N/N=C1\SCC(=O)N1Cc1ccc(Cl)cc1
2. C/C(=N/N=C1\SCC(=O)N1Cc1ccc(Cl)cc1)c1ccccn1
3. C/C(=N/N=C1\SCC(=O)N1Cc1ccc(F)cc1)c1ccccn1
4. C/C(=N/N=C1\SCC(=O)N1Cc1ccc(N)cc1)c1cccs1

8
8
8
8

----------
For each entry below, report its pEC50 value.
- TEST_PROTOCOL: Antioxidant activity of the compound after 30 mins by FRAP assay
- Format: physicochemical
Answers are plain numbers, as −log10 of the molar value.

{"COMPOUND": "O=C1CS/C(=N\\N=C2CCCC2)N1Cc1ccc(Cl)cc1", "pEC50": 2.32}

Each compound below has a reported value. Please supply its pEC50.
1. C/C(=N\N=C1/SCC(=O)N1Cc1cccc(F)c1)c1cccs1
2. C/C(=N/N=C1\SCC(=O)N1Cc1ccccc1[N+](=O)[O-])c1cccs1

[2.58, 2.62]

Quick batch: pEC50 for everything below.
1. C/C(=N/N=C1\SCC(=O)N1Cc1ccc(F)cc1)c1cccs1
2. CC(C)=N/N=C1\SCC(=O)N1Cc1ccc(N)cc1
3. Cc1c(C)c2c(c(C)c1O)CCC(C)(C(=O)O)O2 (stereo unspecified) [TROLOX]
4. C/C(=N\N=C1/SCC(=O)N1Cc1ccccc1F)c1cccs1
5. CC(C)=N/N=C1\SCC(=O)N1Cc1cccc([N+](=O)[O-])c1
6. C/C(=N\N=C1/SCC(=O)N1Cc1cccc(Cl)c1)c1ccccn1
7. O=C1CS/C(=N\N=C2CCCC2)N1Cc1ccccc1F
8. C/C(=N/N=C1\SCC(=O)N1Cc1ccc(F)cc1)c1ccccn1

2.69
2.56
3.80
2.67
2.28
2.31
2.25
2.21
